Molecular target: Plasminogen (Homo sapiens, UniProt P00747)
Sequence (P00747 97-580 limits assumed): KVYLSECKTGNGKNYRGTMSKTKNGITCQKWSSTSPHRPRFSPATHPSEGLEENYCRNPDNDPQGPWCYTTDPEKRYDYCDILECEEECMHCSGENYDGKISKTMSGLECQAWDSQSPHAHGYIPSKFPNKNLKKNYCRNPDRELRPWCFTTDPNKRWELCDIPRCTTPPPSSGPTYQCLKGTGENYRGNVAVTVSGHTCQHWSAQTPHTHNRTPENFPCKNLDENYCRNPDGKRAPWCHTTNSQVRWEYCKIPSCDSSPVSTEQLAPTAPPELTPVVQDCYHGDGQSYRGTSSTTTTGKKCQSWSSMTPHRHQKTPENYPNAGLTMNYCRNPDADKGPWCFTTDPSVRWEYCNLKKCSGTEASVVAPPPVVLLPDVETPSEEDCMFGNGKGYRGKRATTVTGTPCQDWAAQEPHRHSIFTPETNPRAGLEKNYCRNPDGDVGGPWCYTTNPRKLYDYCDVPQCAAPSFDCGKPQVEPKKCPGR
Sequence (P00747 581-810 limits assumed): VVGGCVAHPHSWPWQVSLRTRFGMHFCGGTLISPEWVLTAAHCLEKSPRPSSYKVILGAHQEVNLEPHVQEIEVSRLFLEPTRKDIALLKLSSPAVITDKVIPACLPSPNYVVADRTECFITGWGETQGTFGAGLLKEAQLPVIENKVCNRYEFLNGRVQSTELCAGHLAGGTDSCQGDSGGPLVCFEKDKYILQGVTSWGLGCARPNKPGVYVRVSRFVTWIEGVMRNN
Test: Inhibition of plasmin (unknown origin) at 50 uM using Ac-RM(O2)YRpNA substrate by spectrophotometry method
Bridge positions count the residues as written; N and C are the ends. Peptide text beside a SMILES is read from it.
assay metric: inhibition (%)
// note: answer is a bare numeric in %

Solved cases (3 shown):
CC[C@H](C)[C@@H]1NC(=O)[C@@H]2CCCN2C(=O)[C@@H]2CCCN2C(=O)[C@H](CCCCN)NC(=O)[C@H](CO)NC(=O)[C@H](CCCNC(=N)N)NC(=O)[C@H]([C@@H](C)O)NC(=O)[C@@H]2CSSC[C@H](NC1=O)C(=O)N[C@@H](CC(N)=O)C(=O)N1CCC[C@H]1C(=O)N[C@@H](CC(N)=O)C(=O)NCC(=O)N[C@@H]([C@@H](C)O)C(=O)N2 (cyclo(CNPNGTCTRSKPPI); disulfide 1-7) ... 60
CC[C@H](C)[C@@H]1NC(=O)[C@@H]2CCCN2C(=O)[C@@H]2CCCN2C(=O)[C@H](C(C)C)NC(=O)[C@H](CO)NC(=O)[C@H](CCCNC(=N)N)NC(=O)[C@H]([C@@H](C)O)NC(=O)[C@@H]2CSSC[C@H](NC1=O)C(=O)N[C@@H](CC(N)=O)C(=O)N1CCC[C@H]1C(=O)N[C@@H](CC(N)=O)C(=O)NCC(=O)N[C@@H]([C@@H](C)O)C(=O)N2 (cyclo(CNPNGTCTRSVPPI); disulfide 1-7) ... 25
CC[C@H](C)[C@@H]1NC(=O)[C@@H]2CCCN2C(=O)[C@@H]2CCCN2C(=O)[C@H](CCCNC(=N)N)NC(=O)[C@H](CO)NC(=O)[C@H](CCCNC(=N)N)NC(=O)[C@H]([C@@H](C)O)NC(=O)[C@@H]2CSSC[C@H](NC1=O)C(=O)N[C@@H](CC(N)=O)C(=O)N1CCC[C@H]1C(=O)N[C@@H](CC(N)=O)C(=O)NCC(=O)N[C@@H]([C@@H](C)O)C(=O)N2 (cyclo(CNPNGTCTRSRPPI); disulfide 1-7) ... 23

Moving on to another compound below.
Task: GET inhibition where system = Plasminogen (Homo sapiens, UniProt P00747) and item = CC[C@H](C)[C@@H]1NC(=O)[C@@H]2CCCN2C(=O)[C@@H]2CCCN2C(=O)[C@H]([C@@H](C)CC)NC(=O)[C@H](CO)NC(=O)[C@H](CCCNC(=N)N)NC(=O)[C@H]([C@@H](C)O)NC(=O)[C@@H]2CSSC[C@H](NC1=O)C(=O)N[C@@H](CC(N)=O)C(=O)N1CCC[C@H]1C(=O)N[C@@H](CC(N)=O)C(=O)NCC(=O)N[C@@H]([C@@H](C)O)C(=O)N2 (cyclo(CNPNGTCTRSIPPI); disulfide 1-7)
Result: 50
